The reported measurements were obtained from PubChem BioAssay (NCI).

I'd be grateful if you could share measured growth inhibition for these entries.
- measurement_protocol: NCI Yeast Anticancer Drug Screen. Data for the mlh1 rad18 strain (AID 175)
- conditions: S. cerevisiae mlh1 rad18 strain growth inhibition; at 5.0 µM (retest, dose inferred, filed as 0.5); hits give high values
- Procedure: Growth inhibition of yeast strains with defined genetic alterations is measured as a screen for potential anti-cancer activity. Selected strains with alterations in DNA damage repair or cell cycle control were exposed to compounds and growth inhibition was measured relative to vehicle treated controls. The strain used in this assay is mlh1 rad18
This is part of a sample that, as a whole, favours compounds with a hit. Of some 79,000 tested, about 15% had one in any assay.
One number for each entry, in %.

Please review the entries below; each comes with its answer.
growth inhibition recorded for this compound, NC(N)=Nc1ccc(Cc2ccc(N=C(N)N)cc2)cc1 , is -6

Recorded growth inhibition (compound CCOC1(c2ccccc2)c2ccccc2S(=O)(=O)N1C (configuration not stated) ): 18

For CC[N+](C)(CC)CCC[n+]1c(-c2ccccc2)c2cc(N)ccc2c2ccc(N)cc21 the compound record lists growth inhibition as 4

Notebook: CCc1ccccc1NC(=O)C(C#N)C1=C(Cl)C(=O)c2ccccc2C1=O (configuration not stated) , growth inhibition read as 44

Consider CCCCNC(=O)OCc1c(COC(=O)NCCCC)c(-c2ccc(Cl)c(Cl)c2)n2c1CCC2 . Its measured growth inhibition is 25

Go through the list and state growth inhibition for each entry.
1. O=C(O)c1cccc(S(=O)(=O)NN2C(=O)CSC2c2c(O)ccc3ccccc23)c1 (configuration not stated)
2. Cc1ccc(S(=O)(=O)OC(C=O)C(O)C(O)COC(c2ccccc2)(c2ccccc2)c2ccccc2)cc1 (configuration not stated)
3. COc1ccc2c(Cc3cccc([N+](=O)[O-])c3)cncc2c1O
4. COc1ccccc1C(=O)[O][Sn]([c]1ccccc1)([c]1ccccc1)[c]1ccccc1

[-15, 99, 5, 99]

----------
- measurement_protocol: NCI Yeast Anticancer Drug Screen. Data for the rad50 strain (AID 155);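 also: 0% = growth of vehicle-only cultures of the same strain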
- conditions: S. cerevisiae rad50 strain growth inhibition; at 50.0 µM; hits give high values
This is part of a sample that, as a whole, favours compounds with a hit. Of some 79,000 tested, about 15% had one in any assay. Calls of active or inactive are those of the source. Rule as the data show it: active = growth inhibition above about 70%; inactive = the rest.
So I've got a bunch of molecules here, and I need their growth inhibition values.

Worked cases, answers included:
The molecule listed as CCOC(=O)Cc1[nH]c(C(=O)c2ccccc2)cc1C(=O)c1ccccc1 shows growth inhibition equal to -44.6% (inactive)

Summary for this molecule, O=C(c1ccccc1)C1Cc2ccccc2C1=O (stereo unspecified) : growth inhibition is 78.5% (active)

Per the record, OC1(c2ccccc2)CN(CCl)CC(c2ccccc2)O1 (stereo unspecified) has growth inhibition of -10.6% (inactive)

// recorded growth inhibition for O=C(c1ccccc1)C(Cl)c1ccccc1 (stereo unspecified) : 91.6% (active)

// sample CNc1ccc([N+](=O)[O-])cc1 , its growth inhibition was 43% (inactive)

growth inhibition measured on CC(C)(C)C1=NN=C2c3ccccc3C(=O)C21 (stereo unspecified) = 68.2% (inactive)

Below are 8 molecules. Give each one its growth inhibition.
1. O=C1OCC/C1=C1/CCOC1
2. COc1ccc(N=NN2CCCC2)cc1
3. CC(=O)c1c2c(cc3c1CC1(C3)Cc3cc4c(c(C(=O)O)c3C1)CCCC4)CCCC2 (stereo unspecified) (tested in a mixture with another compound)
4. COc1ccc2ccc3c(c2c1)CCC(C(=O)O)C3CC(=O)O (stereo unspecified)
5. O=[N+]([O-])c1c(O)cccc1O
6. Cc1cccc2c1Oc1ccccc1C2N1C(=O)/C(=C/c2cccs2)SC1=S (stereo unspecified)
7. ClCC1CSC2(CCCCC2)O1 (stereo unspecified)
8. CN1C/C(=C\c2ccccc2)C(=O)/C(=C/c2ccccc2)C1

1: 99.2% (active); 2: 89.7% (active); 3: 77.7% (active); 4: 41.9% (inactive); 5: 99% (active); 6: 51.8% (inactive); 7: 21.5% (inactive); 8: 54.5% (inactive)

Give one value of growth inhibition per listed molecule.
1. COc1ccc(/C=C(\C(=O)c2ccc(O)cc2)c2ccccc2)cc1OC
2. CSC(=Nc1ccccc1)NC(=O)Nc1ccc(Cl)cc1
3. O=C1C=CC(=Nc2cccc3c2-c2ccccc2C3)O1
4. CCC(c1ccc(O)cc1)C(O)(CC)c1ccc(O)cc1 (stereo unspecified)
5. CC(=O)O/C=C1\c2ccccc2CCC1c1ccc2ccccc2c1 (stereo unspecified)
6. O=C1C2C3C=CC(C3)C2C(=O)C2C3C=CC(C3)C12 (stereo unspecified)
7. Cc1c(Cl)ccc(O)c1[N+](=O)[O-]

98.5% (active)
-1.45% (inactive)
99.6% (active)
46.4% (inactive)
-4.45% (inactive)
98.6% (active)
91.6% (active)

Quick one: give me growth inhibition for each item below, same order please.
1. CCOC(=O)OC(=S)N(C1CCCCC1)C1CCCCC1
2. NC(C(=O)O)C1=CCCCCC1 (stereo unspecified)
3. N#CSC#CCCC#CSC#N

["50.5% (inactive)", "49.5% (inactive)", "92.5% (active)"]

----------
- measurement_protocol: NCI Yeast Anticancer Drug Screen. Data for the cln2 rad14 strain (AID 165);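 also: 0% = growth equal to vehicle treated cultures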
- conditions: S. cerevisiae cln2 rad14 strain, at 50.0 µM, hits give high values
The panel holds about 79,000 compounds, 15% with a hit somewhere; the sample as a whole holds those more often.
assay_readout: growth inhibition (%)
One number for each entry, in %.

growth inhibition measured on CCOC(=O)C(=Cc1ccccc1)C(=O)OCC = 69.5

So for CSc1ncnc2nn(C3OC(COC(=O)c4ccccc4)C(OC(=O)c4ccccc4)C3OC(=O)c3ccccc3)nc12 (configuration not stated) , the logged growth inhibition turned out to be 40.3

The value of growth inhibition measured for the molecule COc1ccc2c(c1)C=C([N+](=O)[O-])C(C1OC(C)(C)OC1C1COC(C)(C)O1)O2 (configuration not stated) turned out to be 45.1

Noted for CCCCN1C(=O)C[C@H]2[C@@H]3CCc4cc(OCCN5CCCC5)ccc4[C@H]3CC[C@]2(C)C1=O : its growth inhibition reads 73.1

Just so you know, measured growth inhibition for CC(=O)NC(C)(C)C1CCC(C)=C(c2ccccc2)C1 (configuration not stated) came out at 18.6

Value of growth inhibition reported for the molecule CC(C)(N)COB(c1ccccc1)c1ccccc1 is 99.5

Entry C=CC(=O)Nc1ccccc1CC(c1c[nH]c2ccccc12)c1c[nH]c2ccccc12 , growth inhibition reported as 84.3

Just so you know, measured growth inhibition for CC12C(=O)OC(=O)C1C1c3ccccc3C2c2ccccc21 (configuration not stated) came out at 86.8

For every record below, what is its growth inhibition?
1. Cc1ccc(Cl)cc1NC(=O)N(C)CCOC(=O)Nc1cccc(Cl)c1
2. CC(C)(Br)C(Br)C(=O)C(Br)C(C)(C)Br (configuration not stated)
3. NC(=Nc1cc2ccccc2c2ccccc12)Nc1cc2ccccc2c2ccccc12
4. CCCCCCCCCCCC(=O)C(=O)c1ccc(O)cc1O
5. C(=C\c1cnnc2ccccc12)/c1ccco1

[90, -7.9, 95, 95.5, 80.8]

----------
- measurement_protocol: NCI Yeast Anticancer Drug Screen. Data for the bub3 strain (AID 167)
- conditions: S. cerevisiae bub3 mutant strain, at 50.0 µM, hits give high values
The panel holds about 79,000 compounds, 15% with a hit somewhere; the sample as a whole holds those more often.
Exercise: state measured growth inhibition for each of the compounds provided.
Give bare numbers, in %.

For orientation, consider the following solved cases.
Form: compound = C(=P(c1ccccc1)(c1ccccc1)c1ccccc1)[P+](c1ccccc1)(c1ccccc1)c1ccccc1.[Br][Cu][Br] ; growth inhibition = 99

growth inhibition recorded for this compound, OC(CN1CCC(c2ccccc2)CC1)c1ccc(Br)cc1 (stereo not given) , is 82.7

Here are 2 compounds. What values of growth inhibition were reported for them?
1. Oc1cccc(NCSc2ccc(Cl)cc2)c1
2. COc1cccc(C2c3cc4c(cc3OC(NNc3ccccc3)C2C)OCO4)c1O (stereo not given)

1. 94.1
2. 96.8

The compound O=C(c1ccccc1)c1c(CO[N+](=O)[O-])n([O-])c2ccccc2[n+]1=O showed growth inhibition equal to 97.7

----------
Would you kindly list growth inhibition for each of these molecules?
- measurement_protocol: NCI Yeast Anticancer Drug Screen. Data for the sgs1 mgt1 strain (AID 161);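 also: 0% = growth of cultures given vehicle only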
- conditions: S. cerevisiae sgs1 mgt1 strain, at 5.0 µM (retest, dose inferred, filed as 0.5), hits give high values
Compounds without any hit were thinned out: in the full panel of roughly 79,000, 15% have a hit.
Numbers only, in %.

Value sought for every listed molecule: growth inhibition.
1. O=C(O)COc1cc(Br)cc(Br)c1-c1ccccc1
2. CCCCOC(=O)c1ccc(O)c(OC)c1
3. NC(=O)N/N=C/C(O)C(O)C(O)C(O)CO (stereo not drawn)
4. CCOc1nc(N)nc(C)c1N=Nc1ccc(Cl)cc1Cl

1: -10; 2: 0; 3: -1; 4: 5
